Target: Tumor necrosis factor receptor superfamily member 10B (Homo sapiens) (UniProt O14763)
Sequence (O14763 whole entry, looked up): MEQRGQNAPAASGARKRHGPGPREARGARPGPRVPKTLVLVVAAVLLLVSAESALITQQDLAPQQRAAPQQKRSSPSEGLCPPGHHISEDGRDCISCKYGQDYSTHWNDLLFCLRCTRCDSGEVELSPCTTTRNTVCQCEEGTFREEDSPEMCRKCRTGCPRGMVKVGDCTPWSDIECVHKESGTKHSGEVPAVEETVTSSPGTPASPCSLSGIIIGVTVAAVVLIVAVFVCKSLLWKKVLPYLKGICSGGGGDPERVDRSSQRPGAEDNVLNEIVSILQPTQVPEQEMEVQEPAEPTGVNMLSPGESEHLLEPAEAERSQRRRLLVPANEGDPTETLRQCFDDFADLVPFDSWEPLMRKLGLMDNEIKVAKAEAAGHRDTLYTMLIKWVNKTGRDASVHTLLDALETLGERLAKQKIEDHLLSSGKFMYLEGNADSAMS
Test: caspase-8 TRAIL sensitization, hit retest, confirmation, cell-based, NB7+caspase-8, with/without TRAIL, luminescence panel (AID 651596)
Conditions: NB7 neuroblastoma + caspase-8, TRAIL sensitization, luminescence viability, with TRAIL, mean of runs, at 10 µM, stronger effect = higher value
Binary call on activity with cut-off 70%: strictly below means true (1), and equality or higher means false (0).

// below: answered compounds
- COMPOUND_STRING: "N#C/C(=C\\c1cc(Cl)cc(Cl)c1O)C(=O)NC1CCCCC1"
  CLASS_NAME: "true (1)"
- COMPOUND_STRING: "COc1cccc(N/C=C/C(=O)c2ccc(Cl)cc2)c1"
  CLASS_NAME: "true (1)"
- COMPOUND_STRING: "COc1cccc(/C=C2\\CCc3ccccc3C2=O)c1"
  CLASS_NAME: "false (0)"
- COMPOUND_STRING: "O=C(ONC1=NCCCCC1)c1ccc(Cl)cc1"
  CLASS_NAME: "false (0)"
- COMPOUND_STRING: "Cc1ccc(C(=O)Nc2ccc3c(c2)OCO3)cc1"
  CLASS_NAME: "false (0)"
- COMPOUND_STRING: "Cc1ccc(C(=O)COC(=O)c2ccc3c(c2)C(=O)N(c2cccc4ncccc24)C3=O)cc1"
  CLASS_NAME: "true (1)"

Regarding `Cc1ccc(C(=O)NCCc2cccs2)cc1` , kindly confirm whether its activity is beneath 70%.
false (0)

Regarding `Cc1ccc(-c2nc(N/N=C/c3ccncc3)c3ccccc3n2)cc1` , kindly confirm whether its activity is beneath 70%.
false (0)

State whether 70% exceeds activity recorded for `N/C(=N\OC(=O)c1ccc(Cl)cc1)c1ccc(Cl)cc1` .
false (0)

====

As shown below, each of these compounds has a reported inhibition value.
Assay: inhibition of Brca1/Bard1 split-luciferase complementation, confirmation, counter-screen for Mdm2/MdmX interaction inhibitor project, luminescence, single concentration (AID 504668)
Settings: Brca1/Bard1 bimolecular luciferase complementation counterscreen, at 8 µM, stronger effect = higher value
Write the value in % as a bare number.

Worked cases, answers included:
- COMPOUND: "Cc1ccc(-n2c(C)cc(/C=c3/sc4nc5ccccc5n4c3=O)c2C)cc1"
  UNIT_ABBREV: "%"
  inhibition: 27.7
- COMPOUND: "CC(C)(C)N1C(=O)[C@H]2[C@@H](c3ccc(Br)cc3)N3C(=O)N(c4ccc(Br)cc4)C(=O)[C@@]3(Cc3ccccc3)[C@H]2C1=O"
  UNIT_ABBREV: "%"
  inhibition: 35.6
- COMPOUND: "Oc1ccc(N=Nc2ccccc2C(F)(F)F)c2cccnc12"
  UNIT_ABBREV: "%"
  inhibition: 23.3
- COMPOUND: "Cc1ccc(C(=O)Nc2nc(-c3ccccn3)cs2)s1"
  UNIT_ABBREV: "%"
  inhibition: 34.6

Can you look up the measured inhibition of `ClC(Cl)(Cl)c1nc2ccccc2n2nncc12` for me?
31.8

Given the entry `Oc1ccc(CCNc2ncnc3ccc(Cl)cc23)cc1` , report its measured inhibition.
28.6

====

Biological target: Tumor necrosis factor receptor superfamily member 10B (Homo sapiens)
Test: caspase-8 TRAIL sensitization, hit retest, confirmation, cell-based, NB7+caspase-8, with/without TRAIL, luminescence panel (AID 651596)
Settings: NB7 neuroblastoma + caspase-8, TRAIL sensitization, luminescence viability, with TRAIL, mean of runs, at 10 µM, stronger effect = higher value
# activity per entry
Form entry: value (%) — number only.

- COMPOUND_STRING: "COc1cccc(NC(=O)c2ccc3c(c2)OCO3)c1"
  TEST_SYSTEM: "Tumor necrosis factor receptor superfamily member 10B (Homo sapiens)"
  activity / %: 51.7
- COMPOUND_STRING: "COc1ccccc1C(=O)NNC(=O)c1cccc(O)c1"
  TEST_SYSTEM: "Tumor necrosis factor receptor superfamily member 10B (Homo sapiens)"
  activity / %: 44.2
- COMPOUND_STRING: "CCc1ccc(/C=N/NC(=O)c2ccccn2)cc1"
  TEST_SYSTEM: "Tumor necrosis factor receptor superfamily member 10B (Homo sapiens)"
  activity / %: 83.9
- COMPOUND_STRING: "Fc1ccc(-c2cnn3c(-c4cccs4)ccnc23)cc1"
  TEST_SYSTEM: "Tumor necrosis factor receptor superfamily member 10B (Homo sapiens)"
  activity / %: 61.2
- COMPOUND_STRING: "Cc1ccsc1/C=N/NC(=O)c1ccc2c(c1)OCCO2"
  TEST_SYSTEM: "Tumor necrosis factor receptor superfamily member 10B (Homo sapiens)"
  activity / %: 75.9

Now for the molecule whose activity we want.
Reported activity, molecule `COc1cccc(NC(=O)Nc2ccc3c(c2)nc(C)n3C)c1` : ____
83.7

The origin of these recorded values is PubChem BioAssay.
